Record: IC50 reported on Fatty-acid amide hydrolase 1 (Rattus norvegicus, UniProt P97612).
Sequence (P97612 whole entry): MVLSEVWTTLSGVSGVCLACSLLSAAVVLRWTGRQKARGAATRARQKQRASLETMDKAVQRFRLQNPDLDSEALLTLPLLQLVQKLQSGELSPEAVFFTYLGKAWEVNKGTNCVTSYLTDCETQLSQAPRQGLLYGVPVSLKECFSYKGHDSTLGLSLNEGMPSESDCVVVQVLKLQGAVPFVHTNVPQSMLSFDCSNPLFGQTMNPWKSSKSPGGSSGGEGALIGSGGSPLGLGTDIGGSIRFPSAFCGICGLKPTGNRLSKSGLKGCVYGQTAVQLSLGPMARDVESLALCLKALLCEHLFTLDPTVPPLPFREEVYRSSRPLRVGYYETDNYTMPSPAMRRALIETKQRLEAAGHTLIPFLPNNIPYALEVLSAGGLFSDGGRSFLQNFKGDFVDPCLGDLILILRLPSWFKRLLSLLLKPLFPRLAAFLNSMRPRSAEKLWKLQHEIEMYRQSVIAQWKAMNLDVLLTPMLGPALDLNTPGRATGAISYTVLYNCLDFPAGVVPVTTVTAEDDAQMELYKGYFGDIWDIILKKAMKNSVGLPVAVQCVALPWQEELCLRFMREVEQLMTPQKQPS

# Compound, IC50 (µM)
measured = [
    ("OC(CNc1cc(-c2ccc(C(F)(F)F)c(Cl)c2)ncn1)c1cccc(OC(F)(F)F)c1 (racemic)", 0.021),
    ("N#Cc1ccc(-c2cc(NC[C@H](O)c3ccccc3)ncn2)cc1", 0.75),
    ("CCOc1ccc(-c2cc(NCC(O)c3ccccc3)ncn2)cc1 (racemic)", 0.345),
]

* * *

# Assay Notes: Volume of distribution at steady state in rat at 1 mg/kg, iv and 10 mg/kg, po
# Assay type: ADME, organism-based
# Condition Details: in vivo, read-out: Vdss

# Given Smiles, Vd
rows = [
    ("O[C@@H](CNc1cc(-c2ccc(C(F)(F)F)c(Cl)c2)ncn1)c1ccccc1", "1.7 L/kg"),
]

Attribution: ChEMBL document CHEMBL3120054
